protocol: antimalarial activity against Dd2 strain (AID 2302)
cond: P. falciparum Dd2 in RBCs, LDH growth readout, 72 h; at 2 µM
Activity calls are given as the source filed them.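 Rule for the calls: active = growth inhibition above 50% at the single 2 µM test dose, taken to imply half-maximal potency below 2 µM; inactive = the rest.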
Entry note: the call must match one of true for active, false for inactive

q: In this assay, the call recorded for CN1CCN(Cc2nc(-c3ccc4c(Nc5ccc(F)c(O)c5)ccnc4c3)cs2)CC1 was what?
a: true

q: In this assay, the call recorded for CCN(C)c1cc(C(=O)N[C@@H](Cc2ccccc2)[C@H](O)CNC(C)(C)c2cccc(OC)c2)cc(N2CCCC2=O)c1 was what?
a: true

q: In this assay, the call recorded for CCc1cc(Br)c(CNCCCNc2cc(=O)c3ccccc3[nH]2)s1 was what?
a: false

q: In this assay, the call recorded for CC(C)c1cc(N)c2cc(NC(=O)COCC(=O)Nc3ccc4nc(C(C)C)cc(N)c4c3)ccc2n1 was what?
a: true

q: In this assay, the call recorded for CC1(C)N=C(N)N=C(N)N1OCCOc1ccc2ccccc2c1 was what?
a: true

q: In this assay, the call recorded for O=C(NCC(CCCN1CCC(c2c[nH]c3ccccc23)CC1)c1ccccc1)Nc1ccc(Cl)c(Cl)c1 (stereo not drawn) was what?
a: true

q: In this assay, the call recorded for CCc1nc2c(cnn2CC)c(NC2CCOCC2)c1CNC(=O)N1CCOCC1 was what?
a: false

q: In this assay, the call recorded for O=C(/C=C/c1ccccc1F)NC1CCC(CCN2CCc3ccc(-c4cccnc4)cc3CC2)CC1 (stereo not drawn) was what?
a: false

q: In this assay, the call recorded for Cc1c(CCC#N)c(NCc2ccccc2)n2c(nc3ccccc32)c1C#N was what?
a: true

q: In this assay, the call recorded for CCCCCCN=C(N)c1ccc(OCCCCCOc2ccc(C(N)=NCCCCCC)cc2)cc1 was what?
a: true

q: In this assay, the call recorded for CC(C)c1ccc(NS(=O)(=O)c2cccc(C(=O)NC3CCN(CC4CCCCC4)CC3)c2)cc1 was what?
a: true

q: In this assay, the call recorded for Cc1ccc(NC(=O)c2cccc(CN3CCCN(Cc4cccc(O)c4)CC3)c2)cc1F was what?
a: false

q: In this assay, the call recorded for CCCCOP(=O)(OCCCC)C(=Cc1ccc(O)c2ccccc12)P(=O)(OCCCC)OCCCC was what?
a: true

q: In this assay, the call recorded for Cc1cccc2[nH]c(-c3ccc(-c4ccc(C(=O)NCCc5cn(C)cn5)cc4)s3)nc12 was what?
a: false

q: In this assay, the call recorded for O=C1CSc2ccc(CNC3CCN(CCc4c(F)cnc5ccc(F)cc45)CC3)nc2N1 was what?
a: false

q: In this assay, the call recorded for CC(C)c1cccc(OCC2CCN(c3ncc(C(=O)NC4CC4)cc3Cl)CC2)c1 was what?
a: true

q: In this assay, the call recorded for CN1CCN(c2cccc(-c3nnc(-c4ccc(OCC(=O)NCc5ccc(C(F)(F)F)cc5)c([N+](=O)[O-])c4)o3)c2)CC1 was what?
a: false

q: In this assay, the call recorded for N=c1c2c(n(Cc3cccc(Cl)c3)c3c1CCC3)CCCC2 was what?
a: true

q: In this assay, the call recorded for Cc1csc(-c2nc(NCc3cccnc3)ncc2-c2ccsc2)n1 was what?
a: true

q: In this assay, the call recorded for Brc1ccsc1-c1nc(NCCC(c2ccccc2)c2ccccc2)no1 was what?
a: true

q: In this assay, the call recorded for COc1cc(OC)cc(C(=O)Nc2cccc(-c3cn4ccc(C)cc4n3)c2)c1 was what?
a: false

q: In this assay, the call recorded for FC(F)(F)c1cccc(CNCC2CCN(CC3CCCCC3)CC2)c1 was what?
a: false

q: In this assay, the call recorded for COc1c(C2CCN(CCCCNC(=O)c3cccc(-c4ccc(C(F)(F)F)cc4)c3)CC2)ccc2c1CCCC2 was what?
a: false

q: In this assay, the call recorded for CC(C)(C)OC(=O)/C=C(\C(=O)OCc1ccc([N+](=O)[O-])cc1)c1csc(NC(c2ccccc2)(c2ccccc2)c2ccccc2)n1 was what?
a: true

q: In this assay, the call recorded for CN1CCN(c2cc3c(cc2Cl)CCN3C(=O)Cc2ccc(NC(=O)Nc3cccc4ccccc34)cc2)CC1 was what?
a: false

q: In this assay, the call recorded for OC(CN1CCN(Cc2ccccc2)CC1)Cn1c(-c2ccccc2)c(-c2ccccc2)c2ccccc21 (stereo not drawn) was what?
a: true

q: In this assay, the call recorded for CC(=O)N1N=C(c2cccs2)Sc2c1nc(-c1ccc(Cl)cc1)n2C(C)=O was what?
a: true

q: In this assay, the call recorded for Cc1ccc(CN2CCCN(Cc3ccc(C(=O)Nc4ccc(Cl)cc4)cc3)CC2)s1 was what?
a: false

q: In this assay, the call recorded for CCCCCc1ccc(N2C(N)=NC(N)=NC2(C)C)cc1 was what?
a: false

q: In this assay, the call recorded for O=C(CCCCCNC(=O)c1ccc(O)c(-c2cccc(C(F)(F)F)c2)c1)NCCN1CCCCC1 was what?
a: false

q: In this assay, the call recorded for O=C(/C=C/c1ccc(Cl)c(Cl)c1)NCCCCCN1CCC(NC(=O)Nc2ccc(C(F)(F)F)cc2)CC1 was what?
a: false

q: In this assay, the call recorded for COc1ccccc1NC(=O)Nc1cccc(-c2cccc(-c3nc4c(C)cccc4[nH]3)c2)c1 was what?
a: true

q: In this assay, the call recorded for Cc1ccc2nc(-c3ccc(C(=O)NC4CCN(Cc5ccccc5)CC4)s3)[nH]c2c1 was what?
a: true

q: In this assay, the call recorded for CC(C)NCc1ccc(-c2cccc(NC(=O)c3ccc(C#N)cc3)c2)cc1 was what?
a: false

q: In this assay, the call recorded for Brc1cccc(Nc2nccc(Nc3ccc(Oc4ccccc4)cc3)n2)c1 was what?
a: false

q: In this assay, the call recorded for Clc1ccc(-c2nc3ccc(-c4ccc5nc(-c6ccc(Cl)cc6)[nH]c5c4)cc3[nH]2)cc1 was what?
a: true

q: In this assay, the call recorded for C[C@H](NC(=O)c1c(CN2CCN(C(=O)C(C)(C)C)CC2)c(-c2cccs2)nc2ccccc12)C1CCCCC1 was what?
a: true

q: In this assay, the call recorded for O=C(NC1CCN(Cc2ccccc2)C1)c1ccc(Nc2ccc(Br)cc2)nc1 (stereo not drawn) was what?
a: false
